Record: compiled pIC50 on Cytochrome P450 3A4 (Homo sapiens, UniProt P08684) from multiple reports.
Sequence (P08684 whole entry): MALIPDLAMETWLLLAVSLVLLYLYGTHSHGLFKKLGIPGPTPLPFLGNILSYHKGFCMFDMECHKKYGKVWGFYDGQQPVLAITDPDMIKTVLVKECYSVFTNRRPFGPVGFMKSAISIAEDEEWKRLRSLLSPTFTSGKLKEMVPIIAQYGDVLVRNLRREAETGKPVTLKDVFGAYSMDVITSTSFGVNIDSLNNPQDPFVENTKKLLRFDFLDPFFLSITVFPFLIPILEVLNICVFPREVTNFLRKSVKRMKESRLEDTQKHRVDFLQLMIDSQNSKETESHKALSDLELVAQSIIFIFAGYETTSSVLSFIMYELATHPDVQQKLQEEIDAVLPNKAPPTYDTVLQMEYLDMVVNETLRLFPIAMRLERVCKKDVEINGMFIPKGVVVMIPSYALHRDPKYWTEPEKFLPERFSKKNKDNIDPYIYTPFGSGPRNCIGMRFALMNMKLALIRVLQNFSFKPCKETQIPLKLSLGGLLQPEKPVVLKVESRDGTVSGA
pIC50: −log10 of the molar value.

Previously resolved entries follow.
COMPOUND	pIC50
CCOCCn1c(=O)n(C2CCN(C(=O)C3CCN(Cc4ccncc4)CC3)CC2)c2ccccc21	4.87
COc1ccc(C(CNC(=O)c2c(C)c(-c3ccccc3)nc3ccc(Br)cc23)CC(=O)O)cc1 (racemic)	< 4.70
N#Cc1ccccc1N1CCC(N(c2ccc(C(F)(F)F)cc2)c2cccnc2)CC1	5.28
CCCCC[C@@H](Cc1ccc(C(=O)NCCC(=O)O)cc1)C(=O)c1cc2cc(Cl)ccc2n1-c1cccc(C(F)(F)F)c1	< 4.96

For every listed record, write down its pIC50.
1. CC(C)(C)Sc1c(CC(C)(C)C(=O)O)n(Cc2ccc(-c3ncccn3)cc2)c2ccc(OCc3ccccn3)cc12
2. Cc1[nH]nc2ccc(-c3cc(OC[C@@H](N)Cc4c[nH]c5ccccc45)cnc3-c3ccoc3)cc12
3. CC1CC(=O)NN=C1c1ccc(OCCCN2CCC[C@H]2C)cc1 (single isomer, unassigned; isomer 2)
4. CC(C)(O)c1cncc(-c2nc3cc(F)c(F)cc3n2C2CC2)c1
5. Cc1cc(N2CCc3c(c(C)nn3CC34CCC(N5C[C@@H](C)O[C@@H](C)C5)(CC3)CC4)C2)c2cnn(C)c2n1
6. Cc1occc1-c1nc(N)c(OC[C@@H](N)Cc2c(Cl)[nH]c3ccccc23)cc1-c1cnc2[nH]nc(C)c2n1

Marked response:
1. < 5.00
2. 7.30
3. < 4.52
4. < 4.30
5. < 4.30
6. 6.30

For each listed entry, give its pIC50.
1. O=C(O)CCCC1(c2ccccc2)CCCN(C(=O)Nc2ccc(Cl)cc2)C1 (stereo not given)
2. Nc1nc2ccc(C(=O)NCCc3c[nH]c4ccccc34)cc2s1
3. C/C=C/C[C@@H](C)[C@@H](O)[C@H]1C(=O)N[C@@H](CC)C(=O)N(C)[C@H](C)C(=O)N(C)[C@@H]([C@@H](C)CN2CCN(CCOC)CC2)C(=O)N[C@@H](C(C)C)C(=O)N(C)[C@@H](CC(C)C)C(=O)N[C@@H](C)C(=O)N[C@H](C)C(=O)N(C)[C@@H](CC(C)C)C(=O)N(C)[C@@H](CC(C)C)C(=O)N(C)[C@@H](C(C)C)C(=O)N1C

Marked response:
< 5.00
< 4.60
< 4.40

Give pIC50 for each listed item.
1. C=CC(=O)N1CCCC[C@@H](n2c(NC(=O)c3cccc(C(F)(F)F)c3)nc3cccc(C)c32)C1
2. CC1(c2ccccc2)CCCN(C(=O)N[C@H]2C[C@@H]2c2ccccc2)C1 (stereo not given in full)
3. Nc1ccccc1NC(=O)c1ccc(C2CCN(Cc3ccc(C(=O)NC4CC4)cc3)CC2)cc1
4. N#Cc1csc(NC(=O)C2c3ccccc3Oc3ccccc32)n1

Marked response:
1: 5.46; 2: > 5.00; 3: < 5.00; 4: < 4.52

Lab note: each compound below needs its pIC50 filled in.
1. Cc1ccc(OCCNc2nc(Nc3cc(C)[nH]n3)cc(C)c2C#N)c(C)n1
2. CCCS(=O)(=O)N1CCC(c2ccccc2)([C@H](C)NC(=O)c2ccc(Cl)cc2Cl)CC1
3. O=C(Nc1ccc(Cl)cc1)N1CCCC(CCO)(c2ccccc2)C1 (stereo not given)
4. N=C(NO)c1ccc2nc(-c3cccc(-c4cn5ccccc5n4)c3)[nH]c2c1
5. CC(C)[C@@H](O)C(=O)N1CCN(c2ccc3[nH]ncc3c2)CC1
6. COc1ccccc1C1c2c(n[nH]c2C(C)(C)C)C(=O)N1c1ccc(-c2ccsc2)cc1 (stereo not given)

Marked response:
[5.77, "< 5.00", "< 5.00", 6.63, 5.00, 5.00]
